B1: Ribonuclease HI, P0A7Y4 (parent)
chain: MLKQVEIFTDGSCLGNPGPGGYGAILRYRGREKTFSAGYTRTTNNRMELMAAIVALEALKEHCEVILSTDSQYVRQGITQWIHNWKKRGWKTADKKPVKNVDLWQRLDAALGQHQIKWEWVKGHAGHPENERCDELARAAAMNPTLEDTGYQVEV

# Variants of: B1
# assay_setup: Escherichia coli (strain K12); pH 5.5; Thermal; CD; Sodium acetate 20 mM; reversible: yes; structure 2RN2; whole UniProt chain shown
Below, each of the variants is paired with its reported change of melting temperature, mutant - wild type (higher = more stable) value.
attribute_measured: change of melting temperature, mutant - wild type (higher = more stable) (°C)

>>> print(df.to_string())
   mutation_id  result_units  reported_value
0         H62P            °C             4.1
1         K91R            °C             0.1
2        Q113P            °C            -2.1
3         K95A            °C             0.4
4         K95G            °C             6.8
5         D94E            °C            -1.6
6         K95N            °C             3.2
